ASSAY COMMENT: Plasma pharmacokinetics of resminostat in patients
Assay type: in vivo, human
APPLIED CONDITIONS: human, plasma, po, 400 mg, Cmax, day 5, multiple oral administration, 400 mg, N=3; geometric mean (68% range); free-base
REPORTED PROPERTY: Cmax
Returns: string containing the number followed by the unit.

Quick one: Cmax of `CN(C)Cc1ccc(S(=O)(=O)n2ccc(/C=C/C(=O)NO)c2)cc1` ?
2270 ng/mL

----------
ASSAY COMMENT: Plasma pharmacokinetics of resminostat in patients
Assay type: in vivo, human
APPLIED CONDITIONS: human, plasma, po, 800 mg
REPORTED PROPERTY: Tmax

Quick one: Tmax of `CN(C)Cc1ccc(S(=O)(=O)n2ccc(/C=C/C(=O)NO)c2)cc1` ?
1.75 h
